# Measured target: T1, NLuc-P54nrb full length (human, UniProt Q15233 1-471)
# T1 sequence: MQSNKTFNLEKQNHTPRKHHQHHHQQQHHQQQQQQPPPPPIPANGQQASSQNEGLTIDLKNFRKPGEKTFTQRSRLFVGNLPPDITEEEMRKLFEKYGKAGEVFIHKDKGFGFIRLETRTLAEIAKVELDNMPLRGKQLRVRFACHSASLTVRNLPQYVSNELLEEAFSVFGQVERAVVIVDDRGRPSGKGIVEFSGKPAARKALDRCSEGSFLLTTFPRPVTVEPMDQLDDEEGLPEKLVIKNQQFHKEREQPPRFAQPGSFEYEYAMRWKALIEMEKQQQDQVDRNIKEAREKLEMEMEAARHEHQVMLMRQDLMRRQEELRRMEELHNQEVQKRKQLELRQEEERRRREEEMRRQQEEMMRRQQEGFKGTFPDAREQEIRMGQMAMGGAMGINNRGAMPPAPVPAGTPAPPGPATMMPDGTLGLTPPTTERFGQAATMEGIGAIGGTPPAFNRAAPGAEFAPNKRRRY
# Procedure summary: NanoBRET
pKd: −log10 of the molar value.
Observation type: pKd

Query: Would you kindly share the measured pKd for CTGCTAGCCTCTGGATTTGA (XNA, full PS; 5-10-5 gapmer, 2'-F wings, DNA gap) [ASO 766638 (2'-F gapmer)] ?
Response: ~8.52

The reported numbers originate from paper PMC6846478.
